Values were extracted from paper PMC5840032.

- TEST TARGET: anthrax lethal factor (LF) protease (UniProt P15917 34-809)
- Sequence (P15917 34-809): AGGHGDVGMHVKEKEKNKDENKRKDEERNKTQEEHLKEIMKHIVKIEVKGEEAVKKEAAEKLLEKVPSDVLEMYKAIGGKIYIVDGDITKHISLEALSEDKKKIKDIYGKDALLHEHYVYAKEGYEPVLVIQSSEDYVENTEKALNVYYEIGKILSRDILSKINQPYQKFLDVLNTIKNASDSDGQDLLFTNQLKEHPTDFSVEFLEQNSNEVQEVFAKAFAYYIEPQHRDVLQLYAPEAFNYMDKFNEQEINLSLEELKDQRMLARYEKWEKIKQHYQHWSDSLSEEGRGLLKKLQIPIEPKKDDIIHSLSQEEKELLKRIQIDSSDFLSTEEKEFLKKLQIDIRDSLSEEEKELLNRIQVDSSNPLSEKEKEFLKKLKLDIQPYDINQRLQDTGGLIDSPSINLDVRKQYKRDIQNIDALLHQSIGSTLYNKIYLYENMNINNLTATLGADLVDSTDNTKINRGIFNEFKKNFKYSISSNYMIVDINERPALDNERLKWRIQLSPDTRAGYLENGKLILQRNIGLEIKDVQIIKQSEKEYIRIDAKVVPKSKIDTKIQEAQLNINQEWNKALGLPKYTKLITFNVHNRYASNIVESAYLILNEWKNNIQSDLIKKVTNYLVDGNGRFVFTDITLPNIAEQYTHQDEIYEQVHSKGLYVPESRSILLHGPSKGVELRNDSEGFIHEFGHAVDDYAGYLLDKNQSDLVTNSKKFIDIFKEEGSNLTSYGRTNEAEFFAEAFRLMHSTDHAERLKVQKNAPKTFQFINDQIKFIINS
- ASSAY DETAILS: enzyme inhibition assay
PROPERTY LABEL: Ki
The answer should read as a number with its unit following.

So what's the measured Ki for this one? GFCRCACLHGVCRCICTR (not fully specified; backbone-cyclized; three disulfide bonds) [RTD-1 analog clone #14]
946 nM

So what's the measured Ki for this one? GFCRCPCSRYGCWCICTR (not fully specified; backbone-cyclized; three disulfide bonds) [RTD-1 analog clone #52]
946 nM
